# system-under-test: T1, cynomolgus monkey ST2 antigen (Cyno-ST2-his, Sino biological, 90915-C08H) (cynomolgus monkey, UniProt Q01638 19-328 (human entry))
# T1 construct: Bought protein; not shown: his tag
# T1 chain: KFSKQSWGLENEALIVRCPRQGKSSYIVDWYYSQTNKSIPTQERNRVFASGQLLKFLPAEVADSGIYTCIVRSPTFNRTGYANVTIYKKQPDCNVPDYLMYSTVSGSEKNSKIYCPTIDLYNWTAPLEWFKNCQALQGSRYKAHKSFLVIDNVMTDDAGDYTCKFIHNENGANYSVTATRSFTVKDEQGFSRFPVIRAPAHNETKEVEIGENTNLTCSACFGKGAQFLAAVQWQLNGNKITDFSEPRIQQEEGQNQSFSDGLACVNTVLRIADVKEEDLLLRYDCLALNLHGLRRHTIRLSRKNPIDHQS
# experimental-protocol: SPR (Biacore T200), Cyno-ST2-his captured by anti-his antibody on CM5, antibody as analyte, 1:1 model
metric: Kd (nM)
One number for each entry, in nM.

Consider the reported Kd for these binders:
Chimeric 8F4 (antibody, human IgG2, kappa, V domains shown, also called xi8F4) VH: QVQLQQSGAELVRPGASVTLSCKASGHIFTDYEMQWVKQTPVHGLEWIGAFDPETGDTAYNQKFKGKATLTADKSSSTAYMELSSLTSEDSAVYYCSGSTTDYYFAYWGQGTSLTVSS VL: DVVMTQTAFSNPVTLGTSASISCRSSKSLLHSNGIIYLYWYLQKPGQSPQLLIYQMSNLASGVPDRFSSSGSGTDFTLRISRVEAEDVGVYYCAQNLELPFTFGSGTKLEIKR | 4.04
Chimeric 3C6 (antibody, human IgG2, kappa, V domains shown, also called xi3C6) VH: QVQLQQSGAEVVRPGASVTLSCKASDYTITDYEMHWVKQTPVHGLEWIGAIDPETGDTAYSQNFKGKATLTADESSSTAYMELSSLTSEDSAVYYCSRSATDYYFASWGQGTTLTVSS VL: DIVMTQAAISNPVTLGTSASMSCRSSKSLLHSNGITYLYWYLQKPGHSPQLLIYQMSNLASGVPDRFSSSGSGTDFTLKISRVEAEDVGVYYCAQNLELPFTFGSGTKLEIKR | 152

query: Fill in the blank: the reported Kd of Chimeric 31C8 (antibody, human IgG2, kappa, V domains shown, also called xi31C8) VH: QVQLQQSGPELVRPGASVTLSCKASGYIFIDSEMHWVKQTPVHGLEWIGAIDPETGDTVYNQKFKGKATLTADKSSSTASMELSSLTSEDSAVYYCTGSTTDYYFAYWGQGTTLTVSS VL: DIVMTQAAFSNPVTLGTSASISCRSSKSLLHSNGIIYLYWYLQKPGQSPQLLIYQMSNLASGVPDRFSSSGSGTDFTLRISRVEAEDVGVYYCAQNLELPFTFGSGTKLEIKR is ____.
result: 0.323
